Target: Nitric oxide synthase 1 (Rattus norvegicus) (UniProt P29476)
Sequence (P29476 whole entry): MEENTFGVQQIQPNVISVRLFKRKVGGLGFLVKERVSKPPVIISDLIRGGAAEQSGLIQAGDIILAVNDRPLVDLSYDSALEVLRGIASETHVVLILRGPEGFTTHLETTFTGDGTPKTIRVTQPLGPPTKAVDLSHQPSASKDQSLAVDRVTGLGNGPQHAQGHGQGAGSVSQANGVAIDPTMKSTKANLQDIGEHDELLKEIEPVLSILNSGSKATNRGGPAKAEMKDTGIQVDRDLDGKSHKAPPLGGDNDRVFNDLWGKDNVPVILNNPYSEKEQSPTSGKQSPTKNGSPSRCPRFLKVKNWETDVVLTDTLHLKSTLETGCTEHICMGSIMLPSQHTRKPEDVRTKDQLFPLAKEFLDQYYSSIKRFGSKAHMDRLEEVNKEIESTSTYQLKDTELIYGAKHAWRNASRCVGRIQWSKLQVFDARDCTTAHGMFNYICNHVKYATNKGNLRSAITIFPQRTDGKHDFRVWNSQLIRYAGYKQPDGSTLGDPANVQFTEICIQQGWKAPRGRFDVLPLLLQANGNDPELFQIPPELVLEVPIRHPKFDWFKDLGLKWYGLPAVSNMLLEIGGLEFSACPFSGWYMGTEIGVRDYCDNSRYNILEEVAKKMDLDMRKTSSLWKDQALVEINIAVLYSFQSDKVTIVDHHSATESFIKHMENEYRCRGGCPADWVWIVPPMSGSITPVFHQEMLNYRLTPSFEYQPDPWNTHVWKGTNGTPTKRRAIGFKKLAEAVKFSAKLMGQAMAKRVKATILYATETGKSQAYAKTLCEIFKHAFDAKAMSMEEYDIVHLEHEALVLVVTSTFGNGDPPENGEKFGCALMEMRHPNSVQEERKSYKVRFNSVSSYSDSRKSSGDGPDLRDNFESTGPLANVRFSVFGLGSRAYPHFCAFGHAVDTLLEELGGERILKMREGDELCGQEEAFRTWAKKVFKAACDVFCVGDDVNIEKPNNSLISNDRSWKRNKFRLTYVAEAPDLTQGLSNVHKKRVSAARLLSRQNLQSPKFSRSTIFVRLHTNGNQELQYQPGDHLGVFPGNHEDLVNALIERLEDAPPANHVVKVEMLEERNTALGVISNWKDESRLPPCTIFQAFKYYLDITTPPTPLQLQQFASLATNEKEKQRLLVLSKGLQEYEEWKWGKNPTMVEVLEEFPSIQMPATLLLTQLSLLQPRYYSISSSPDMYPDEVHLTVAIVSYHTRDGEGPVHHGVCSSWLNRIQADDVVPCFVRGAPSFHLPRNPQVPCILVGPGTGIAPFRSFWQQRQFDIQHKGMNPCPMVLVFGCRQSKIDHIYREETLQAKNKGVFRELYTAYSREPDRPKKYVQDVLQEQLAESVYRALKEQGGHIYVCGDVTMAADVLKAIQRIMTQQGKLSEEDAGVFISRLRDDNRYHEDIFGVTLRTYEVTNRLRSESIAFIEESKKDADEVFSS
Test: Percentage inhibition of rat striatal neural nitric oxide synthase (nNOS) activity at 1 mM by quantifying L-[3H]citrulline production
Hi, to clarify the labels: fulfilled covers inhibition from 30% upward, not fulfilled covers anything below 30%.

Reference set, count: 4
COc1ccc(N)c(C(=O)CCNC(=O)C2CCC2)c1
fulfilled
CC(=O)NCCC(=O)c1cc(Cl)ccc1N
fulfilled
COc1ccc(N)c(C(=O)CCNC(=O)c2ccccc2)c1
fulfilled
Nc1ccc(Cl)cc1C(=O)CCNC(=O)C1CC1
not fulfilled

Asked: Exam item: decide whether the reported inhibition for COc1ccc(N)c(C(=O)CCNC(C)=O)c1 is at least 30%.
Given back: fulfilled
